Below, each of the compounds is paired with its reported IC50 value.
assay.overview: Inhibition of Inositol 1,4,5-trisphosphate 3-kinase (IP3K) from rat brain
quantity.name: IC50 (µM)

O=P(O)(O)O[C@@H]1[C@H](O)[C@H](O)[C@@H](OP(=O)(O)O)[C@H](OP(=O)(O)O)[C@H]1O (stereo in doubt; form 1) [INS(1,4,5)P3] ... 3.55
O=P(O)(O)O[C@@H]1[C@H](O)[C@H](O)[C@@H](OP(=O)(O)O)[C@H](OP(=O)(O)O)[C@H]1O (stereo in doubt; form 2) [INS(1,4,5)P3] ... 12.4
O=P(O)(O)O[C@H]1[C@H](O)[C@@H](OP(=O)(O)O)[C@H](OP(=O)(O)O)[C@@H](OP(=O)(O)O)[C@H]1O (stereo in doubt; form 4) ... 65.2
O=P(O)(O)O[C@H]1[C@H](O)[C@@H](OP(=O)(O)O)[C@H](OP(=O)(O)O)[C@@H](OP(=O)(O)O)[C@H]1O (stereo in doubt; form 2) ... 56.7
O=P(O)(O)O[C@H]1[C@H](O)[C@@H](OP(=O)(O)O)[C@H](OP(=O)(O)O)[C@@H](OP(=O)(O)O)[C@H]1O (stereo in doubt; form 1) ... 42.1
O=P(O)(O)O[C@H]1[C@H](O)[C@@H](OP(=O)(O)O)[C@H](OP(=O)(O)O)[C@@H](OP(=O)(O)O)[C@H]1O (stereo in doubt; form 3) ... 220
